Task for the reader: assign each of the following compounds its reported % Compound Remaining Compared to %100 Acetonitrile Control.
# experimental_details: Protide stability in normal plasma, rat
# Format: in vitro ADME
# condition_description: 37° C., 30 min
Numbers only, in %.

compound="COc1nc(N)nc2c1ncn2C1O[C@H](COP(=O)(N[C@@H](C)C(=O)OCC(C)(C)C)Oc2cccc3ccccc23)[C@@H](O)[C@@]1(C)O (stereo partly shown) [Example 20]" numeric_readout=0

List the reported % Compound Remaining Compared to %100 Acetonitrile Control of each compound below.
1. COc1nc(N)nc2c1ncn2C1O[C@H](COP(=O)(N[C@H](C(=O)OCC(C)(C)C)C(C)C)Oc2c(C)ccc3ccccc23)[C@@H](O)[C@@]1(C)O (stereo partly shown) [Example 54]
2. COc1nc(N)nc2c1ncn2C1O[C@H](COP(=O)(N[C@H](C(=O)OC2CCOCC2)C(C)C)Oc2cccc3ccccc23)[C@@H](O)[C@@]1(C)O (stereo partly shown) [Example 47]
3. C[C@H](NP(=O)(OC[C@H]1OC(n2cnc3c(=O)[nH]c(N)nc32)[C@](C)(O)[C@@H]1O)Oc1cccc2ccccc12)C(=O)OCC(C)(C)C (stereo partly shown) [A, reference compound]
4. COc1nc(N)nc2c1ncn2C1O[C@H](COP(=O)(N[C@H](C(=O)OCc2ccccc2)C(C)C)Oc2cccc3ccccc23)[C@@H](O)[C@@]1(C)O (stereo partly shown) [Example 36]
5. CC(C)[C@H](NP(=O)(OC[C@H]1OC(n2cnc3c(=O)[nH]c(N)nc32)[C@](C)(O)[C@@H]1O)Oc1cccc2ccccc12)C(=O)OCC(C)(C)C (stereo partly shown) [B, reference compound]
6. COc1nc(N)nc2c1ncn2C1O[C@H](COP(=O)(N[C@H](C(=O)OCC(C)(C)C)C(C)C)Oc2cccc3ccccc23)[C@@H](O)[C@@]1(C)O (stereo partly shown) [Example 42]

1. 60.6
2. 71.3
3. 0
4. 16.9
5. 66.7
6. 50.0

The measurements presented in this section are drawn from patent US8759318B2.
